biological target: glucosylceramide synthase (Homo sapiens); construct: Microsomes were isolated from A375 human melanoma cells; endogenous in cells; experiment: microsomal assay measuring conversion of ceramide to glucosylceramide by HPLC (GCS IC50); conditions: concentration causing 50% inhibition of glucosylceramide synthase activity
Sequence (Q16739 whole entry): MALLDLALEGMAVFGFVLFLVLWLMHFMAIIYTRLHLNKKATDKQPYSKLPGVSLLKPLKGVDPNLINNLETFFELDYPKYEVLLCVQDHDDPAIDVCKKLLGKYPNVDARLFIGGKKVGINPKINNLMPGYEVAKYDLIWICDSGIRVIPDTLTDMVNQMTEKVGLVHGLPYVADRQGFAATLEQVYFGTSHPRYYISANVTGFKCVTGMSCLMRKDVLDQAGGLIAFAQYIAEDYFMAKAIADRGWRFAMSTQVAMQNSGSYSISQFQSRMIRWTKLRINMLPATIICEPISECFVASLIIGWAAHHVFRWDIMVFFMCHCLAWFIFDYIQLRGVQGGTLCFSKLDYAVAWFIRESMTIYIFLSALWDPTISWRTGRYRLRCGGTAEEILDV
quantity_measured: IC50
Hi, when you answer, please include the unit after the number. Thanks!

CCC1(NC(=O)NC(C)(C)c2ccc(-c3ccc(N4CCOCC4)cc3)cc2)CN2CCC1CC2 (centres unmarked) [Example 234]	14.6 nM
CC(C)(NC(=O)NC1(C)CN2CCC1CC2)c1ccc(-c2ccc(N3CCOCC3)cc2)cc1 (centres unmarked) [Example 232]	30.9 nM
COCCCOc1ccc(-c2ccc(C(C)(C)NC(=O)OC3CN4CCC3CC4)cc2)cc1 (centres unmarked) [Example 172]	2.41 nM

The value of IC50 recorded for CC1(COc2ccc(-c3ccc(C(C)(C)NC(=O)OC4CCN5CCC4CC5)cc3)cc2)COC1 (centres unmarked) [Example 192] when tested on glucosylceramide synthase (Homo sapiens) reads 5.69 nM

The value of IC50 recorded for CC(C)(NC(=O)OC1CN2CCC1CC2)c1ccc(-c2ccc(OCCn3cccn3)cc2)cc1 (centres unmarked) [Example 179] when tested on glucosylceramide synthase (Homo sapiens) reads 6.73 nM

The value of IC50 recorded for COCCOc1ccc(-c2ccc(C(C)(C)NC(=O)OC3CN4CCC3CC4)cc2)nc1 (centres unmarked) [Example 308] when tested on glucosylceramide synthase (Homo sapiens) reads 254 nM

The value of IC50 recorded for COCCCOc1ccc(-c2cccc(C(C)(C)NC(=O)N3CCN4CCC3CC4)c2)nn1 [Example 314] when tested on glucosylceramide synthase (Homo sapiens) reads 2630 nM

The value of IC50 recorded for COCc1ccc(-c2nc(N3CCN(C(=O)NC4(C)CCN5CCC4CC5)CC3C(C)C)ncc2F)cc1 (centres unmarked) [Example 148] when tested on glucosylceramide synthase (Homo sapiens) reads 17.4 nM
